- Assay Text: Part A single-ascending-dose plasma PK in healthy subjects
- Format: in vivo, human
- Applied Conditions: human, plasma, iv, 1 g, part A cohort 4, single 1.0 g, 2-h i.v. infusion
Quantity Kind: Cmax (ng/mL)
Give just the numeric value; ng/mL need not be written.

[ask] Please give the measured Cmax for this compound: `CC1=C[C@@H]2CN(C(=O)N2OS(=O)(=O)O)[C@@H]1C(N)=O`
[reply] 31300

====

- Assay Text: Urine PK (urinary excretion, renal clearance) in healthy subjects
- Applied Conditions: human, urine, intravenous, 0.5 g, CLr, mean, part B cohort 10, following the final dose on Day 8, 0.500 g
Quantity Kind: CL renal (mL/min)
Express your answer in mL/min, writing the number without its unit.

[ask] GET /values?readout=CL renal&item= `CC1=C[C@@H]2CN(C(=O)N2OS(=O)(=O)O)[C@@H]1C(N)=O`
[reply] 95.6

====

- Assay Text: Part B multiple-ascending-dose plasma PK in healthy subjects
- Type: in vivo, human
- Applied Conditions: human, plasma, iv, 1 g, part B cohort 11 (5 subjects), 1.0 g q6h 3-h i.v. infusion, day 8
Quantity Kind: Cmax (ng/mL)
Your answer is read as ng/mL, so omit the unit and give the number.

[ask] // query Cmax value for entry `CC1=C[C@@H]2CN(C(=O)N2OS(=O)(=O)O)[C@@H]1C(N)=O`
[reply] 33400

====

- Assay Text: Part A single-ascending-dose plasma PK in healthy subjects
- Format: in vivo, human
- Applied Conditions: human, plasma, iv, 4 g, part A cohort 6, single 4.0 g, 3-h i.v. infusion; read-out: Vss
- Protocol: This was a 4-part, double-blind, placebo-controlled study (15 cohorts) of DUR administered as a 3-h i.v. infusion (except for cohort 4, in which a 2-h i.v. infusion was evaluated) (see Table S5 in the supplemental material). […] AUC was calculated using the log-linear trapezoidal rule. […]
Quantity Kind: Vd (L)
Reply numerically in L, unit not repeated.

[ask] Recorded Vd for CC1=C[C@@H]2CN(C(=O)N2OS(=O)(=O)O)[C@@H]1C(N)=O [DUR, Durlobactam] , please?
[reply] 22.4

====

- Assay Text: clinical
- Applied Conditions: human, in vivo, Vss
Quantity Kind: Vd (L)
Reply with just the number (in L).

[ask] Find the recorded Vd belonging to `CC1=C[C@@H]2CN(C(=O)N2OS(=O)(=O)O)[C@@H]1C(N)=O` and report it.
[reply] 15.9

====

- Assay Text: Part A single-ascending-dose plasma PK in healthy subjects
- Format: in vivo, human
- Applied Conditions: human, plasma, iv, 0.5 g, part A cohort 2, single 0.5 g, 3-h i.v. infusion; read-out: Vss
Quantity Kind: Vd (L)
Numbers only; they are read as L.

[ask] Bench note: what Vd did `CC1=C[C@@H]2CN(C(=O)N2OS(=O)(=O)O)[C@@H]1C(N)=O` show?
[reply] 25.8

====

- Assay Text: Part C single-dose drug-drug interaction plasma PK in healthy subjects
- Applied Conditions: human, in vivo, AUC0–24, part C cohort 14, IMI-CIL 0.5 g alone, day 3
Quantity Kind: AUC(0-t)
A bare number is not enough; add the unit after it.

[ask] Name the recorded AUC(0-t) for `CC1(C)C[C@@H]1C(=O)N/C(=C\CCCCSC[C@H](N)C(=O)O)C(=O)O` .
[reply] 49600 ng·h/mL

====

- Assay Text: Part B multiple-ascending-dose plasma PK in healthy subjects
- Format: in vivo, human
- Applied Conditions: human, plasma, iv; part B cohort 11 (5 subjects), 1.0 g q6h 3-h i.v. infusion, day 8; read-out: Vss
- Protocol: This was a 4-part, double-blind, placebo-controlled study (15 cohorts) of DUR administered as a 3-h i.v. infusion (except for cohort 4, in which a 2-h i.v. infusion was evaluated) (see Table S5 in the supplemental material). […] AUC was calculated using the log-linear trapezoidal rule. […]
Quantity Kind: Vd (L)
Use L as the unit, but write only the number.

[ask] Please look up its Vd: `CC1=C[C@@H]2CN(C(=O)N2OS(=O)(=O)O)[C@@H]1C(N)=O`
[reply] 17.2

====

- Assay Text: Part C single-dose drug-drug interaction plasma PK in healthy subjects
- Applied Conditions: human, in vivo, Cmax, part C cohort 14, DUR 1 g + IMI-CIL 0.5 g, day 5
Quantity Kind: Cmax (ng/mL)
# output: bare number, implied unit ng/mL

[ask] // returns reported Cmax for input `CC1(C)C[C@@H]1C(=O)N/C(=C\CCCCSC[C@H](N)C(=O)O)C(=O)O`
[reply] 44000

====

- Assay Text: Part A single-ascending-dose plasma PK in healthy subjects
- Format: in vivo, human
- Applied Conditions: human, plasma, iv, 8 g, part A cohort 7, single 8.0 g, 3-h i.v. infusion
Quantity Kind: Cmax (µg/mL)
Respond numerically; units are µg/mL and should not be typed.

[ask] Entry `CC1=C[C@@H]2CN(C(=O)N2OS(=O)(=O)O)[C@@H]1C(N)=O` : reported Cmax = ?
[reply] 176

====

- Assay Text: Part A single-ascending-dose plasma PK in healthy subjects
- Assay type: in vivo, human
- Applied Conditions: human, plasma, iv, 1 g, part A cohort 3, single 1.0 g, 3-h i.v. infusion; read-out: AUC0–t
- Method: This was a 4-part, double-blind, placebo-controlled study (15 cohorts) of DUR administered as a 3-h i.v. infusion (except for cohort 4, in which a 2-h i.v. infusion was evaluated) (see Table S5 in the supplemental material). […] AUC was calculated using the log-linear trapezoidal rule. […]
Quantity Kind: AUC(0-t) (ng·h/mL)
# unit: ng·h/mL | format: bare number

[ask] Find the recorded AUC(0-t) belonging to CC1=C[C@@H]2CN(C(=O)N2OS(=O)(=O)O)[C@@H]1C(N)=O [DUR, Durlobactam] and report it.
[reply] 75600

====

- Assay Text: Urine PK (urinary excretion, renal clearance) in healthy subjects
- Applied Conditions: human, urine, intravenous, 1 g, CLr, mean, part A cohort 8 (elderly), single 1 g, n=5
Quantity Kind: CL renal
Field: value (include unit after the number)

[ask] Query (compound): `CC1=C[C@@H]2CN(C(=O)N2OS(=O)(=O)O)[C@@H]1C(N)=O` ; field requested: CL renal
[reply] 55.4 mL/min

====

- Assay Text: Part B multiple-ascending-dose plasma PK in healthy subjects
- Assay type: in vivo, human
- Applied Conditions: human, plasma, iv; part B cohort 9, 0.25 g q6h 3-h i.v. infusion, day 8
Quantity Kind: half-life (h)
Output spec: scalar in h, unitless text.

[ask] Fill blank: measured half-life of the molecule `CC1=C[C@@H]2CN(C(=O)N2OS(=O)(=O)O)[C@@H]1C(N)=O` is ____.
[reply] 1.9

====

- Assay Text: Part B multiple-ascending-dose plasma PK in healthy subjects
- Assay type: in vivo, human
- Applied Conditions: human, plasma, iv, 0.25 g, part B cohort 9, 0.25 g q6h 3-h i.v. infusion, day 8, median
Quantity Kind: Tmax
Answers without a unit are incomplete; give the number and then its unit.

[ask] If you can, please state the reported Tmax value of `CC1=C[C@@H]2CN(C(=O)N2OS(=O)(=O)O)[C@@H]1C(N)=O` .
[reply] 2.5 h

====

- Assay Text: Part B multiple-ascending-dose plasma PK in healthy subjects
- Type: in vivo, human
- Applied Conditions: human, plasma, iv, 2 g, part B cohort 12, 2.0 g q6h 3-h i.v. infusion, day 8; read-out: AUC0–tau
Quantity Kind: AUC (µg·h/mL)
Enter your answer as a number in µg·h/mL; do not include the unit.

[ask] For `CC1=C[C@@H]2CN(C(=O)N2OS(=O)(=O)O)[C@@H]1C(N)=O` , what is its reported AUC?
[reply] 193

====

- Assay Text: Urine PK (urinary excretion, renal clearance) in healthy subjects
- Applied Conditions: human, urine, intravenous, 2 g, CLr, median, part B cohort 12, following the final dose on Day 8, 2.000 g
Quantity Kind: CL renal (mL/min)
Numbers only; they are read as mL/min.

[ask] Tell me the measured CL renal of CC1=C[C@@H]2CN(C(=O)N2OS(=O)(=O)O)[C@@H]1C(N)=O [DUR, Durlobactam] , please.
[reply] 109

====

- Assay Text: Urine PK (urinary excretion, renal clearance) in healthy subjects
- Applied Conditions: human, urine, intravenous, 2 g, CLr, mean, part B cohort 9, first 48 hours, dose over 48 hours 2.00 g (8 doses)
Quantity Kind: CL renal (mL/min)
Form entry: value (mL/min) — number only.

[ask] Name the reported CL renal value associated with the compound CC1=C[C@@H]2CN(C(=O)N2OS(=O)(=O)O)[C@@H]1C(N)=O [DUR, Durlobactam]
[reply] 238

====

- Assay Text: Part A single-ascending-dose plasma PK in healthy subjects
- Format: in vivo, human
- Applied Conditions: human, plasma, iv, 2 g, part A cohort 5, single 2.0 g, 3-h i.v. infusion, mean ± SD, n=6; read-out: t1/2 (converted)
Quantity Kind: half-life (h)
Only the number, expressed in h, is required.

[ask] Return reported half-life; argument: CC1=C[C@@H]2CN(C(=O)N2OS(=O)(=O)O)[C@@H]1C(N)=O [DUR, Durlobactam]
[reply] 2.2
